B1: ELF3 (parent)
chain: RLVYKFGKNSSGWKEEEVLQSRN

# Variants of: B1
# PROTOCOL_NOTES: protein stability index of a GFP-peptide fusion (GPS, HEK-293T) (PSI 1-6); higher = more stable;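 further: lentivirally expressed fusions sorted by FACS into six bins by GFP to DsRed ratio, PSI derived from sequencing read proportions per bin multiplied by bin number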
# TEST_CONTEXT: c terminus: native
# reported protein stability index; entries follow

{"columns": ["MUTANT_LABEL", "protein stability index"],
 "data": [
  ["K8F", 1.86],
  ["L2R", 2.87],
  ["V18R", 2.29],
  ["N23Y", 2.31],
  ["G7M", 1.81],
  ["S10P", 2.1],
  ["Q20W", 1.67],
  ["R22C", 2.35],
  ["E17I", 2.02],
  ["R22K", 3.75],
  ["G7W", 3.57],
  ["V3K", 2.49],
  ["W13G", 4.27],
  ["G12I", 1.76],
  ["Y4A", 3.39],
  ["E15W", 1.86],
  ["K8E", 2.97],
  ["K14L", 2.7],
  ["W13P", 4.45],
  ["K14N", 1.92],
  ["L2E", 4.2],
  ["K5D", 2.8],
  ["R1C", 2.32],
  ["S11V", 3.33],
  ["K5Q", 2.09],
  ["S21M", 2.31],
  ["L19F", 1.49],
  ["L2M", 2.99],
  ["R1E", 3.17],
  ["V3R", 2.75],
  ["G7T", 2.31],
  ["K8M", 1.38],
  ["V18N", 2.59],
  ["K8R", 1.31],
  ["R1S", 1.69],
  ["N9S", 2.22],
  ["E15V", 2.49],
  ["L19A", 3.3],
  ["K8N", 2.46],
  ["G7A", 1.89]
]}
